System: horse erythrocytes
Assay name: Hemolytic activity (hemoglobin release from erythrocytes)
Format: cell-based
Test parameters: D-amino acid lipopeptides, 250 µM, TRIS buffer pH 7.2, 1 h, 37 °C, relative to melittin, ± confidence interval (α = 0.05)
Attribute measured: Hemolysis (%) 250 µM
# value in %; strip the unit string

Recorded Hemolysis (%) 250 µM, per entry:
Molecule	Attribute measured	Units of measure	Experimental result
CCCCCC(=O)NCCCC[C@@H](NC(=O)[C@H](CC(C)C)NC(=O)[C@H](CCCCN)NC(=O)[C@H](CCCCN)NC(C)=O)C(=O)N[C@@H](CCCCN)C(=O)N[C@@H](CCCCN)C(=O)N[C@H](C(=O)N[C@@H](CC(C)C)C(=O)N[C@@H](CCCCN)C(=O)N[C@@H](Cc1ccc(O)cc1)C(=O)N[C@@H](CC(C)C)C(N)=O)[C@@H](C)CC	Hemolysis (%) 250 µM	%	10
CCCC(=O)NCCCC[C@H](NC(=O)[C@@H](Cc1ccccc1)NC(=O)[C@H](CC(C)C)NC(=O)[C@H](CCCCN)NC(=O)[C@H](CCCCN)NC(C)=O)C(=O)N[C@@H](CCCCN)C(=O)N[C@H](C(=O)N[C@@H](CC(C)C)C(=O)N[C@@H](CCCCN)C(=O)N[C@@H](Cc1ccc(O)cc1)C(=O)N[C@@H](CC(C)C)C(N)=O)[C@@H](C)CC	Hemolysis (%) 250 µM	%	21

Consider the record given below.
Ask: I would be grateful if you could share the reported Hemolysis (%) 250 µM for `CCCCCCCCCCCC(=O)NCCCC[C@H](NC(=O)[C@H](CC(C)C)NC(=O)[C@@H](NC(=O)[C@H](CCCCN)NC(=O)[C@H](CCCCN)NC(=O)[C@@H](Cc1ccccc1)NC(=O)[C@H](CC(C)C)NC(=O)[C@H](CCCCN)NC(=O)[C@H](CCCCN)NC(C)=O)[C@@H](C)CC)C(=O)N[C@@H](Cc1ccc(O)cc1)C(=O)N[C@@H](CC(C)C)C(N)=O` .
Reply: 100

###

Test system: tobacco leaves
Assay name: Effect of peptide infiltration on tobacco leaves (lesion size)
Format: in vivo
Test parameters: D-amino acid lipopeptides; 250 µM, 100 µL infiltrated into tobacco leaves, lesion diameter, 48 h, at least three leaves; ± confidence interval
Where a SMILES comes first, the peptide text is derived from it. [ ]: non-standard residue; d: D form. The star is where a group is joined. Lauroyl = CCCCCCCCCCCC(=O)*
# Size of the lesion (mm) 250 µM per record follows
Return type: number; implicit unit mm.

Known Size of the lesion (mm) 250 µM results, listed for orientation:
Compound	Units of measure	Size of the lesion (mm) 250 µM
CCCC(=O)NCCCC[C@H](NC(=O)[C@H](CCCCN)NC(=O)[C@@H](Cc1ccccc1)NC(=O)[C@H](CC(C)C)NC(=O)[C@H](CCCCN)NC(=O)[C@H](CCCCN)NC(C)=O)C(=O)N[C@H](C(=O)N[C@@H](CC(C)C)C(=O)N[C@@H](CCCCN)C(=O)N[C@@H](Cc1ccc(O)cc1)C(=O)N[C@@H](CC(C)C)C(N)=O)[C@@H](C)CC	mm	5
CCCCCCCCCCCC(=O)NCCCC[C@H](NC(=O)[C@H](CCCCN)NC(=O)[C@H](CCCCN)NC(=O)[C@@H](Cc1ccccc1)NC(=O)[C@H](CC(C)C)NC(=O)[C@H](CCCCN)NC(=O)[C@H](CCCCN)NC(C)=O)C(=O)N[C@@H](CC(C)C)C(=O)N[C@@H](CCCCN)C(=O)N[C@@H](Cc1ccc(O)cc1)C(=O)N[C@@H](CC(C)C)C(N)=O [BP489, Ac-KKLfKKK(COC11H23)LKYL-NH2] (Ac-KKL[dF]KKK(Lauroyl)LKYL-NH2)	mm	11

Now for the compound whose Size of the lesion (mm) 250 µM we want.
Ask: Record `CCCCCC(=O)NCCCC[C@@H](NC(=O)[C@H](CC(C)C)NC(=O)[C@H](CCCCN)NC(=O)[C@H](CCCCN)NC(C)=O)C(=O)N[C@@H](CCCCN)C(=O)N[C@@H](CCCCN)C(=O)N[C@H](C(=O)N[C@@H](CC(C)C)C(=O)N[C@@H](CCCCN)C(=O)N[C@@H](Cc1ccc(O)cc1)C(=O)N[C@@H](CC(C)C)C(N)=O)[C@@H](C)CC` : what is its Size of the lesion (mm) 250 µM with tobacco leaves?
Reply: 7
